tested-on: Follicle-stimulating hormone receptor (Homo sapiens, UniProt P23945)
Sequence (P23945 whole entry): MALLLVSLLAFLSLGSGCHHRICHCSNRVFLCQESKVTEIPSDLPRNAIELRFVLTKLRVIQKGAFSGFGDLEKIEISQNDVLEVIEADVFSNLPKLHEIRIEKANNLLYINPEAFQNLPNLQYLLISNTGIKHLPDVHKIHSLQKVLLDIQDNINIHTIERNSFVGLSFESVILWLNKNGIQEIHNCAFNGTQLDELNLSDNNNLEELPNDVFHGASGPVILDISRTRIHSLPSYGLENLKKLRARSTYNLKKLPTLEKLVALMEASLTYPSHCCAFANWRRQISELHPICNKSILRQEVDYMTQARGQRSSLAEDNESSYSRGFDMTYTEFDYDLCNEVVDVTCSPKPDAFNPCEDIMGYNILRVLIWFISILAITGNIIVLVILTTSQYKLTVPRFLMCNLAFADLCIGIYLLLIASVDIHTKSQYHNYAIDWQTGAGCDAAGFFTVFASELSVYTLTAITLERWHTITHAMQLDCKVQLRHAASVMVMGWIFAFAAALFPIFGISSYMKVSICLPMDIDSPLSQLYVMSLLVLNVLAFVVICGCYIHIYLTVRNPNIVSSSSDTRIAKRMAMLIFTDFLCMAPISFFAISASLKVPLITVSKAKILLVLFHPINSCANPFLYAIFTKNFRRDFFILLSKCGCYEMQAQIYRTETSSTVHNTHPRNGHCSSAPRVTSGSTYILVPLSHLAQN
method-summary: Agonistic activity against human follicle stimulating hormone receptor in CHO-hFSHR-luciferase assay.
Format: functional
observed-property: EC50 (nM)
Just the number in nM, nothing appended.

Challenge: Fill blank: measured EC50 of the compound CCCCCCCCN1C(=O)[C@H](Cc2ccc(-c3cccc(CN(COC)C(=O)NC)c3)cc2)N(C)C(=O)[C@@H]1C is ____.
Response given: 3.6

Challenge: Which measured EC50 value corresponds to CCCCCCCCN1C(=O)[C@@H](Cc2ccc(-c3cc(OC)c(OC)c(OC)c3)cc2)N(C)C(=O)[C@@H]1C ?
Response given: 68

Challenge: Please report the recorded EC50 for CCCCCCCCN1C(=O)[C@H](Cc2ccc(-c3cccc(CN(COC)C(C)=O)c3)cc2)N(C)C(=O)[C@@H]1C .
Response given: 9.7

Challenge: Could you tell me which EC50 is on file for CCCCCCCCN1CC(=O)N(C)[C@@H](Cc2ccc(-c3cc(OC)c(OC)c(OC)c3)cc2)C1=O ?
Response given: 400

Challenge: Could you tell me which EC50 is on file for CCCCCCCCN1CC(=O)N(C)[C@@H](Cc2ccc(-c3cc(OC)cc(OC)c3)cc2)C1=O ?
Response given: 5000

Challenge: Name the reported EC50 value associated with the compound CCCCCCCCN1CC(=O)N(C)[C@@H](Cc2ccc(-c3ccc(OC)c(OC)c3)cc2)C1=O
Response given: 3300

Challenge: Any idea what its EC50 is? The compound is CCCCCCN1C(=O)[C@H](Cc2ccc(-c3cccc(CN(CCCC)C(=O)NC)c3)cc2)N(C)C(=O)[C@@H]1C
Response given: 7.2

Challenge: Sample CCCCCCCN1C(=O)[C@H](Cc2ccc(-c3cc(OC)c(OC)c(OC)c3)cc2)N(C)C(=O)[C@@H]1C — what was its EC50?
Response given: 25

Challenge: Value lookup for EC50; key = CCCCCCCCN1C(=O)[C@H](Cc2ccc(-c3cc(OC)c(OC)c(OC)c3)cc2)N(C)C(=O)[C@@H]1C
Response given: 13

Challenge: May I ask what EC50 has been recorded for CCCCCCCCCN1CC(=O)N(C)[C@@H](Cc2ccc(-c3cc(OC)c(OC)c(OC)c3)cc2)C1=O ?
Response given: 900

Challenge: Endpoint output: EC50 of CCCCCCN1C(=O)[C@H](Cc2ccc(-c3cccc(CN(CCCC)C(=O)OC)c3)cc2)N(C)C(=O)[C@@H]1C . Value?
Response given: 8.9

Challenge: // query EC50 value for entry CCCCCCN1C(=O)[C@H](Cc2ccc(-c3cccc(CN(CCCC)C(C)=O)c3)cc2)N(C)C(=O)[C@@H]1C
Response given: 150

Challenge: // returns reported EC50 for input CCCCCCCCN1C(=O)[C@@H](Cc2ccc(-c3cc(OC)c(OC)c(OC)c3)cc2)N(C)C(=O)[C@H]1C
Response given: 1600

* * *

tested-on: Follicle-stimulating hormone receptor (Homo sapiens, UniProt P23945)
method-summary: Agonistic activity against human follicle stimulating hormone receptor in CHO-hFSHR-luciferase assay.
Format: functional
observed-property: pEC50
Convention used: pEC50 is expressed as -log10 of the molar concentration.

Challenge: Which value of pEC50 has been reported for CCCCCNC(=O)CN1CC(=O)N(C)[C@@H](Cc2ccc(-c3cccc(CN(CCCC)C(=O)NC)c3)cc2)C1=O in the records?
Response given: 8.77

Challenge: // pEC50 lookup, key: CCCCCCCCN1CC(=O)N(C)[C@@H](Cc2ccc(-c3cc(C)c(OC)c(C)c3)cc2)C1=O
Response given: 5.92

Challenge: I have this molecule here, CCCCCCN1C(=O)[C@H](Cc2ccc(-c3cc(OC)c(OC)c(OC)c3)cc2)N(C)C(=O)[C@@H]1C , and I need its recorded pEC50.
Response given: 7.00

Challenge: Which pEC50 is listed for CCCCCCCCN1C(=O)[C@H](Cc2ccc(-c3cccc(CN(COC)C(=O)OC)c3)cc2)N(C)C(=O)[C@@H]1C ?
Response given: 8.74

* * *

tested-on: Follicle-stimulating hormone receptor (Homo sapiens)
method-summary: Agonistic activity against human follicle stimulating hormone receptor in CHO-hFSHR-luciferase assay.
Type: functional
observed-property: EC50

Challenge: Quick check: EC50 of CCCCCCNC(=O)CN1CC(=O)N[C@@H](Cc2ccc(-c3cc(OC)c(OC)c(OC)c3)cc2)C1=O ?
Response given: > 20 µM

Challenge: Look up EC50: CCCCCCNC(=O)CN1CC(=O)N(CCC)[C@@H](Cc2ccc(-c3cc(OC)c(OC)c(OC)c3)cc2)C1=O
Response given: > 20 µM

Challenge: Looking for the measured EC50 of CCCCCCNC(=O)CN1CC(=O)N(CC)[C@@H](Cc2ccc(-c3cc(OC)c(OC)c(OC)c3)cc2)C1=O , can you help?
Response given: > 20 µM
